- System: intracellular T. cruzi amastigotes
- measurement-description: Primary high-content intracellular T. cruzi amastigote assay
- Assay type: cell-based, Trypanosoma cruzi (Silvio X10/7 A1) in Vero cells
- condition-label: Trypanosoma cruzi; hits of the bio-actives screen, 10-point dose-response, top concentration 50μM, 72h; read-out: pEC50 (cruzi) (converted)
measured-quantity: EC50 (µM)
Kindly provide the numeric value in µM only, without the unit symbol.

Guide cases for EC50, answers given:
>>> obs_value("CO[C@H]1/C=C/O[C@@]2(C)Oc3c(C)c(O)c4c(O)c(c(/C=N/N5CCN(C6CCCC6)CC5)c(O)c4c3C2=O)NC(=O)/C(C)=C\\C=C\\[C@H](C)[C@H](O)[C@@H](C)[C@@H](O)[C@@H](C)[C@H](OC(C)=O)[C@@H]1C [Rifapentine]")
10
>>> obs_value("CCOC(=O)C(C)(C)Oc1ccc(Cl)cc1 [Clofibrate]")
6.31
>>> obs_value("CCOC(=O)C1=C(COCCN)NC(C)=C(C(=O)OC)C1c1ccccc1Cl (centres unmarked) [Amlodipine]")
0.501
>>> obs_value("Cc1ccc(NC(=O)c2ccc(CN3CCN(C)CC3)cc2)cc1Nc1nc(-c2cccnc2)cs1 [Masitinib]")
2

May I ask what EC50 has been recorded for COC(=O)C1=C(C)NC(C)=C(C(=O)OCCN(C)Cc2ccccc2)C1c1cccc([N+](=O)[O-])c1 (centres unmarked) [Cardene] ?
3.98
